Measured neutralization EC90 of individual entries
Target Entity: T1, BKV serotype I infectious virus (VP1) (BK virus serotype I, UniProt P03088 1-362)
T1 sequence (looked up): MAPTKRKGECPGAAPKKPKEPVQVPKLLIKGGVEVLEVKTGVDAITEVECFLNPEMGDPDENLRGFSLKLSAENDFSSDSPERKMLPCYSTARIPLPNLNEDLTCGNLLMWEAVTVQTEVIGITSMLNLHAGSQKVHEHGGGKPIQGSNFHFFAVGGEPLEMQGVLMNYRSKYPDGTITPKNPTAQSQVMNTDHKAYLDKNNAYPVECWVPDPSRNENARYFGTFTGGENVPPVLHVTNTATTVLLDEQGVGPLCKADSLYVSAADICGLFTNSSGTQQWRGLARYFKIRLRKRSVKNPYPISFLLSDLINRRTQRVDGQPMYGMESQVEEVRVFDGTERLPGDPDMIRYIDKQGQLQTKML
Protocol Text: cell-based or functional assay
Form entry: value (µg/mL) — number only.

Answered cases to consult:
Binder	neutralization EC90 [µg/mL]
2081-38-5 (antibody, V domains shown) VH: QVQLQQSGPELVKPGASVKISCKASGYTFSSSWINWVKQRPGQGLEWIGRIYPGDGDTNYNGKFKGKATLTADKSSSTVDMHLSSLTYVDSAVYFCAIHSSGFPHWGQGTLVTVSA VL: DIQMTQTTSSLSASLGGRVTISCRTSQDISDYLNWYQQKPDGAVKLLIYYTSRLHSGVPSRFSGSGSGTDYSLTISNLEQEDIATYFCQQTNTLPFTFGGGTKLEIK	1.8
2075-456-4 (antibody, V domains shown) VH: QVHLQQSGPELVKPGASVTISCKTSGYSFSSCWMNWVKQRPGQGLEWIGRIYPGDGDTKYTEKFKDKATLTADKSSSTAYMQLSSLTSVDSALYFCAISGSGLPYWGQGTLVTVSE VL: DIQMTQTTSSLSASLGDRVTISCRASQDIHNYLNWYQQKPDGTIKLLIYSTSRLHSGVPSRFSGSGSGTHYSLTINNLEQEDIATYFCQQTHTLPLTFGAGTKLELK	0.503
2081-36-8 (antibody, V domains shown) VH: QVQLQQSGAGLVRPGSSVKISCKTSGYAFSSYWMNWVKQRPGQGLEWIGQIYPGNGDTNYNGKFKGKATLTADKSSNTAYIQLNSLTSEDSAVYFCAREARQGYHYAMDYWGQGTSVTVSL VL: EIVFTQSPTTMAAFPGEKITITCSASSMINSNYLHWYQQKPGFSPKVLIYRTSNLASGVPARFSGTGSGTSFSLTIGTMEAEDVATYYCQQGSNIFTFGSGTKLEIK	0.909
2081-66-5 (antibody, V domains shown) VH: QVQLQQSGPELVKPGASVRISCKVSGFTFSNSWMNWVKQRPGQGLEWIGRIYPGDGDTQYNEKFKGKATLTADTSSNTAYIQLNSLTSVDSAVFFCARSRSGLDYWGQGTTLTVSS VL: DIQMTQSTSSLSASLGDRVTISCRASQDIYNYLNWFQQKPDGTVKPLIYSTSRLHSGVSSRFSGSGSGTDYSLTISNLEREDIATYFCHQSHTVPFTFGSGTKLEIK	0.601
2075-16-1 (antibody, V domains shown) VH: QVQLQQPGSELVRPGASVKLSCKASGYTFTNYWMHWVKQGHGQGLEWIGNIYPGSGNTNYGENFKSKGTLTVDTSSSTAYMHLSRLTSEDSAVYYCSRSAIYYGYDGHYFAMDYWGQGTSVTVSS VL: DIQMTQSPSSLSASLGGKVTITCKASQDIRKYIAWYQHKPGKGPRLLINYTSTLQSGIPSRFRGSGSGRDYSFSISNLEPEDIATYYCLQYDNILFTFGTGTKLEIK	1.25

Please find the next binder below.
# neutralization EC90 of 2081-25-6 (antibody, V domains shown) VH: QVQLQQSGAELVRPGSSVKISCKASGYAFSRYWMNWVKQRPGQGLEWIGQIYPGDGDTKYNGKFKDTATLTADKSSSTAYLQLSSLTSEDSAVYFCAKYGNYGMDYWGQGTSVTVSS VL: DAVMTQTPLSLPVSLGDQASISCRSSQSLEYGNGNTYLNWYLQKPGQSPQLLIYRVSNRFSGVLDRFSGSGSGTDFTLKISRVEAEDLGVYFCLQFTHVPYTFGGGTKLEIK = 0.723
